- System under test: anti-ALFA VHH
- Test description: binding affinity to the anti-ALFA VHH (log(agonist) vs. response, variable slope)
- Measurement setup: binding to anti-ALFA VHH
Experimental endpoint: pEC50
A value of pEC50 is the negative decimal logarithm of a concentration given in moles per litre.

Entry under review: Ac-SRLEEELRRRLTE-NH2 [SD15197, reference compound] . Reported pEC50?
8.59

---

- Test description: Plasma stability, mouse plasma
- Measurement setup: Balb C, mouse, Li-heparin plasma
Bridge positions count the residues as written; N and C are the ends. Peptide text beside a SMILES is read from it.
Experimental endpoint: remaining at 1 h, 10 µM (%)
Quick reminder: number only, in %, skip the unit.

Entry under review: CC(=O)N1CCC[C@H]1C(=O)N[C@@H](CO)C(=O)N[C@@H](CCCNC(=N)N)C(=O)N[C@@H](CC(C)C)C(=O)N[C@H]1CCC(=O)NCCCC[C@@H](C(=O)N[C@@H](CCCNC(=N)N)C(=O)N[C@@H](CCCNC(=N)N)C(=O)N[C@@H](CC(C)C)C(=O)N[C@H](C(=O)N[C@@H](CCC(=O)O)C(N)=O)[C@@H](C)O)NC(=O)[C@H](CC(C)C)NC(=O)[C@H](CCC(=O)O)NC(=O)[C@H](CCC(=O)O)NC1=O [SD15806] (Ac-PSRLEEELKRRLTE-NH2; lactam 5-9) . Reported remaining at 1 h, 10 µM?
88.4
